B1: FCHSD1 (parent)
chain: LEAAEVILEHAHRGEQTTSQVSWE

# Variants of: B1
# ASSAY INFO: protein stability index of a GFP-peptide fusion (GPS, HEK-293T) (PSI 1-6); higher = more stable;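 note: lentivirally expressed fusions sorted by FACS into six bins by GFP to DsRed ratio, PSI derived from sequencing read proportions per bin multiplied by bin number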
# APPLIED CONDITIONS: c terminus: a fixed tail appended
Listed variants paired with reported protein stability index
Simply state the number, no unit and no words.

Solved cases (3 shown):
{"VARIANT": "E5V", "protein stability index": 2.83}
{"VARIANT": "L1R", "protein stability index": 4.52}
{"VARIANT": "W23Y", "protein stability index": 4.71}

Now consider the entry below.
**Query** Given A11W , state its recorded protein stability index.
**Result** 3.23
